Data origin, for the record: ChEMBL document CHEMBL4342467

- target: Mitogen-activated protein kinase 3 (Homo sapiens)
- assay explanation: Inhibition of ERK1 (unknown origin) at 1 uM by Z'-Lyte assay relative to control
Would you mind labelling by inhibition? At or over 70% is T, under is F.

[
  {
    "structure": "Cc1ccccc1C(=O)Nc1sc2c(c1C(N)=O)CCN(C(=S)Nc1ccccc1Br)C2",
    "label class": "F"
  },
  {
    "structure": "NC(=O)c1c(NC(=O)c2ccc(C(F)(F)F)cc2)sc2c1CCN(C(=O)Nc1ccccc1Cl)C2",
    "label class": "T"
  },
  {
    "structure": "NC(=O)c1c(NC(=O)c2ccccc2F)sc2c1CCN(C(=O)Nc1ccccc1Cl)C2",
    "label class": "F"
  },
  {
    "structure": "NC(=O)c1c(NC(=O)c2ccccc2F)sc2c1CCN(C(=S)Nc1ccccc1Cl)C2",
    "label class": "F"
  },
  {
    "structure": "NC(=O)c1c(NC(=O)c2ccccc2I)sc2c1CCN(C(=S)Nc1ccccc1Br)C2",
    "label class": "T"
  },
  {
    "structure": "NC(=O)c1c(NC(=O)c2ccccc2Cl)sc2c1CCN(C(=S)Nc1ccccc1Br)C2",
    "label class": "T"
  },
  {
    "structure": "NC(=O)c1c(NC(=O)c2ccccc2)sc2c1CCN(C(=S)Nc1ccccc1Cl)C2",
    "label class": "T"
  },
  {
    "structure": "NC(=O)c1c(NC(=O)c2ccccc2Cl)sc2c1CCN(C(=O)Nc1ccccc1Cl)C2",
    "label class": "T"
  },
  {
    "structure": "NC(=O)c1c(NC(=O)c2ccccc2F)sc2c1CCN(Cc1ccc(Cl)cc1Cl)C2",
    "label class": "F"
  },
  {
    "structure": "NC(=O)c1c(NC(=O)c2ccccc2F)sc2c1CCN(Cc1c(Cl)cccc1Cl)C2",
    "label class": "F"
  },
  {
    "structure": "NC(=O)c1c(NC(=O)c2ccc(C(F)(F)F)cc2)sc2c1CCN(C(=S)Nc1ccccc1Cl)C2",
    "label class": "T"
  },
  {
    "structure": "NC(=O)c1c(NC(=O)c2ccccc2Br)sc2c1CCN(C(=S)Nc1ccccc1Br)C2",
    "label class": "T"
  },
  {
    "structure": "NC(=O)c1c(NC(=O)c2ccccc2I)sc2c1CCN(C(=S)Nc1ccccc1C(F)(F)F)C2",
    "label class": "T"
  },
  {
    "structure": "O=C(Nc1ccc2[nH]nc(-c3ccncc3)c2c1)[C@@H]1CCN(CC(=O)N2CCN(c3ccc(-c4ncccn4)cc3)CC2)C1",
    "label class": "T"
  },
  {
    "structure": "NC(=O)c1c(NC(=O)c2ccccc2Cl)sc2c1CCN(C(=S)Nc1cc(C(F)(F)F)cc(C(F)(F)F)c1)C2",
    "label class": "T"
  },
  {
    "structure": "NC(=O)c1c(NC(=O)c2cccc([N+](=O)[O-])c2)sc2c1CCN(Cc1ccc(Cl)cc1Cl)C2",
    "label class": "F"
  },
  {
    "structure": "CCCCCC(=O)Nc1sc2c(c1C(N)=O)CCN(C(=S)NCCCC)C2",
    "label class": "F"
  },
  {
    "structure": "NC(=O)c1c(NC(=O)c2ccccc2Cl)sc2c1CCN(Cc1c(Cl)cccc1Cl)C2",
    "label class": "F"
  }
]
